Items are presented alongside their recorded EC50.
# tested target: CLDN3/4 endogenously expressed on LS513 and MCF7 cells
# protocol: FACS dose curve, labelled mAb, LS513 cells
Expressed in µM, but write only the number.

Examples with answers:
input: Quick one: EC50 for AB18 (antibody, V domains shown) VH: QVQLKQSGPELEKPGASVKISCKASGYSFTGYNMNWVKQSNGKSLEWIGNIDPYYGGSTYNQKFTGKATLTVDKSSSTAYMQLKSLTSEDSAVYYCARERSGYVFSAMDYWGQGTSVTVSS VL: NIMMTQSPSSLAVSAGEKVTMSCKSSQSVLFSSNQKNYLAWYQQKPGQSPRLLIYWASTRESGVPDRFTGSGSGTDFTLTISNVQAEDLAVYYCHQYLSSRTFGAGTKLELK ?
output: 5

input: Same question for AB3 (antibody, V domains shown) VH: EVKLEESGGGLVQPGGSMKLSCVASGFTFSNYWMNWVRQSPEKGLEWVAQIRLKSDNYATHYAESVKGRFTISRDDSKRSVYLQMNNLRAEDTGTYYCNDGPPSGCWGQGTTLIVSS VL: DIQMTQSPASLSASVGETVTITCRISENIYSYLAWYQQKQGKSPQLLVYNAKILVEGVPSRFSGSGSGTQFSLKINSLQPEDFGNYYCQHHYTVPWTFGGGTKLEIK please.
output: 5

Note: attention shifts to another entry.
input: Quick one: EC50 for AB19 (antibody, V domains shown) VH: EVQLQQSGPELVKPGGSMKISCKASGYSFTGYTMNWVKRSHGKNLEWIGLINPYNGVTTYNQNFKGKATLAVDKSSSTAYMELLGLTSEDSAVYYCTRDPLYYGYRDSTMDYWGQGTSVTVSS VL: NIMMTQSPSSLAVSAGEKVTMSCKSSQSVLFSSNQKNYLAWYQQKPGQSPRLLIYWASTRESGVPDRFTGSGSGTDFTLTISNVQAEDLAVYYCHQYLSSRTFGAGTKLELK ?
output: 5
